- system name: recombinant human KLK5 (human) (UniProt Q9Y337)
- Sequence (Q9Y337 67-293): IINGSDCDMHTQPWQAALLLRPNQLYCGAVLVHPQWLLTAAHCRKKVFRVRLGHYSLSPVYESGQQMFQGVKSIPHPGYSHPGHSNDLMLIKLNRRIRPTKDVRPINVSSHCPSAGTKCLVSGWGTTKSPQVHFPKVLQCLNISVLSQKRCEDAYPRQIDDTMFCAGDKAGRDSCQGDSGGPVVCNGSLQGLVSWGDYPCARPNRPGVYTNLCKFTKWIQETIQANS
- assay explanation: pro-KLK1 coupled assay, 0.5 nM KLK5, 31.25 nM pro-KLK1, PFR-AMC
quantity name: IC50 (read off the curve)

Query: IC50 (read off the curve); subject: 2-3F4 (antibody, V domains shown) VH: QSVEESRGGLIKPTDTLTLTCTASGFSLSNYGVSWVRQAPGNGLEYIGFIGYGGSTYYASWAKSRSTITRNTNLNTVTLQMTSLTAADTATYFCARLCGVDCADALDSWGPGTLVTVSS VL: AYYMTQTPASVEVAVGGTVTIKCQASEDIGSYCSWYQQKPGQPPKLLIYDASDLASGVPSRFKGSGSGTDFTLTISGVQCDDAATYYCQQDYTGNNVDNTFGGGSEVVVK
100 pM

Query: IC50 (read off the curve); subject: 10C8 (antibody, V domains shown) VH: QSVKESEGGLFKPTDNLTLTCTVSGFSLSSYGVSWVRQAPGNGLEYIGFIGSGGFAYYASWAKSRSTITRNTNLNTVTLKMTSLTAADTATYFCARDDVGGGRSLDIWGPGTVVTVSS VL: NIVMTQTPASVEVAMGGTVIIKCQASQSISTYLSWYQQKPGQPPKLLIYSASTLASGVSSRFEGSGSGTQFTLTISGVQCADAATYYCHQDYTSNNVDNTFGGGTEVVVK
100 to 200 pM

Query: IC50 (read off the curve); subject: 9H3 (antibody, V domains shown) VH: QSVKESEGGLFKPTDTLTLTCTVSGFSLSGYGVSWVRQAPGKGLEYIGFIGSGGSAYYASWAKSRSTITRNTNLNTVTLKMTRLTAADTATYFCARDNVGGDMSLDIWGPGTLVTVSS VL: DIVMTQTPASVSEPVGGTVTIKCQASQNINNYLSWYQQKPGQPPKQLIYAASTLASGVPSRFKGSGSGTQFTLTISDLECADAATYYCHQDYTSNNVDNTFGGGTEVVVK
100 pM

Query: IC50 (read off the curve); subject: 8B7 (antibody, V domains shown) VH: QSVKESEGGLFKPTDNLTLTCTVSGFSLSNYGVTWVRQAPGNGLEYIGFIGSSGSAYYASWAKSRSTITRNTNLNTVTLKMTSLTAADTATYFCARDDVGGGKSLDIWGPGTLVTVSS VL: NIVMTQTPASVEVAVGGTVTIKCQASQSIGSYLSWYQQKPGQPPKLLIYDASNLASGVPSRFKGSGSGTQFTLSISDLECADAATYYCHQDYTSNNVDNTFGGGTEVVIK
100 pM

Query: IC50 (read off the curve); subject: 9F2 (antibody, V domains shown) VH: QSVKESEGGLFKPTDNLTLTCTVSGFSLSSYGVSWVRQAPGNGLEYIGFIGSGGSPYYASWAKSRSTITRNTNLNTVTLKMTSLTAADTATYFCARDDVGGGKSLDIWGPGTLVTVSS VL: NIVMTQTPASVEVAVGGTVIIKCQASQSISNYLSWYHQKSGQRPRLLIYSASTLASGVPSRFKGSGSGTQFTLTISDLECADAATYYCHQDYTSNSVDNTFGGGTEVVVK
100 to 200 pM

Query: IC50 (read off the curve); subject: 3-3F5 (antibody, V domains shown) VH: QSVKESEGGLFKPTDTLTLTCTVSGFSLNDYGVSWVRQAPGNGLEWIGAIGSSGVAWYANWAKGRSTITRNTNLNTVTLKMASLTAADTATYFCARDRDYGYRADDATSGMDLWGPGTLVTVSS VL: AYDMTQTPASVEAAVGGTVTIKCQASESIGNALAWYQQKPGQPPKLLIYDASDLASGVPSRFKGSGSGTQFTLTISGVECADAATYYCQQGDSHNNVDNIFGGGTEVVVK
100 to 200 pM

Query: IC50 (read off the curve); subject: 9H5 (antibody, V domains shown) VH: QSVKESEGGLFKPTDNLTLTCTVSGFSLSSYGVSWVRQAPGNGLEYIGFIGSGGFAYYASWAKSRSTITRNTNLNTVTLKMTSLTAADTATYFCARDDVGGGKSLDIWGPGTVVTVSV VL: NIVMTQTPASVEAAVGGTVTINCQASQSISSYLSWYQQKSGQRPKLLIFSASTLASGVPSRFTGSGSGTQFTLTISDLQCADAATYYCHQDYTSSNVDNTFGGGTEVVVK
100 to 200 pM

Query: IC50 (read off the curve); subject: 10H3 (antibody, V domains shown) VH: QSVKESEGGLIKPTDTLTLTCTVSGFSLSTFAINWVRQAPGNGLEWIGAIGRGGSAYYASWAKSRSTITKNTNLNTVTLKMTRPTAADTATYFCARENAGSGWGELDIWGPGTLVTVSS VL: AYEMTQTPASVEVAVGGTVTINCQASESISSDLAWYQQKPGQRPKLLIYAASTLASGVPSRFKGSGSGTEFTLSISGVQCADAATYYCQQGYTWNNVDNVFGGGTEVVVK
100 pM

Query: IC50 (read off the curve); subject: 8F5 (antibody, V domains shown) VH: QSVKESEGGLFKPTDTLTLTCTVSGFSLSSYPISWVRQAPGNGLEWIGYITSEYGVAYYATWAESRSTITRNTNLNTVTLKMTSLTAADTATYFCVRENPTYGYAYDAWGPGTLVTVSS VL: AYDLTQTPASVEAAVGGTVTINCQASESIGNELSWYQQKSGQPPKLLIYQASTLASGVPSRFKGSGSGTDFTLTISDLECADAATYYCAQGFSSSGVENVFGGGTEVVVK
100 to 200 pM

Query: IC50 (read off the curve); subject: 10C5 (antibody, V domains shown) VH: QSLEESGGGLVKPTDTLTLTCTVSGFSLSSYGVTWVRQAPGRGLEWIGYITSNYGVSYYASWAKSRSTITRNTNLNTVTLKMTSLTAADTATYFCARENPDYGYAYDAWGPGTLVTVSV VL: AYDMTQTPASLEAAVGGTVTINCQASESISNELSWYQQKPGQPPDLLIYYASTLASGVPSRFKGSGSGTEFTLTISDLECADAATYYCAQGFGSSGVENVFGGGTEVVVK
100 pM

Query: IC50 (read off the curve); subject: 2B11 (antibody, V domains shown) VH: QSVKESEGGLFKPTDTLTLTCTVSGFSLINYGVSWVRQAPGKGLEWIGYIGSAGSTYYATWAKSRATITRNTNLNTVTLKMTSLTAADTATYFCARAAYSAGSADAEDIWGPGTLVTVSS VL: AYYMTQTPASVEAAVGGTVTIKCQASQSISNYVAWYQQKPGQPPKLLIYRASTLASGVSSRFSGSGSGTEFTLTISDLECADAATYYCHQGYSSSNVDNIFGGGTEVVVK
200 pM
